Reference source: patent US9951088B2

tested.on: long isoform of human D2 receptor (Homo sapiens, UniProt P14416)
Sequence (P14416 whole entry, canonical isoform): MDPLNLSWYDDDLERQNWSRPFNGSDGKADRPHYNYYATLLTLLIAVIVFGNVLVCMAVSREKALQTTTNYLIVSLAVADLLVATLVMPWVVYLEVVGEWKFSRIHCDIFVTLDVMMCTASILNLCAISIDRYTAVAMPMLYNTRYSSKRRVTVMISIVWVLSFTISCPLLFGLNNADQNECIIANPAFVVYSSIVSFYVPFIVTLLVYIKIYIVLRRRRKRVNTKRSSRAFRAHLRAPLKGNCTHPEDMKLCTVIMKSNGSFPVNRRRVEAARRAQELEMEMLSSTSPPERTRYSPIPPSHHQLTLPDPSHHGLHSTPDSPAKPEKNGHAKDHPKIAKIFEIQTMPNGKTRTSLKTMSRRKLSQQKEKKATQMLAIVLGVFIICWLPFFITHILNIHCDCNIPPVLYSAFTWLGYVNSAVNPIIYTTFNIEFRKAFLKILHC
assay.method.text: Arrestin Agonist Assay (DRD2L PathHunter CHO-K1 cells, β-arrestin recruitment)
measurement.context: CHO-K1, read-out: β-arrestin (agonist mode) Emax
recorded.metric: Emax

Look over these answered cases.
structure_smiles=O=C1NCCc2ccc(OCCCCN3CCc4cc(F)ccc4C3)nc2N1 recorded_metric=Emax result="< 10%"
structure_smiles=N#Cc1ccc2c(c1)CCN(CCCCOc1ccc3ccc(=O)[nH]c3n1)C2 recorded_metric=Emax result="< 10%"
structure_smiles=N#Cc1ccc2c(c1)CCN(CCCCOc1ccc3cccc(O)c3n1)C2 recorded_metric=Emax result="< 10%"
structure_smiles=O=C1CCc2ccc(OCCCCN3CCc4c(cnn4-c4ccccc4)C3)cc2N1 recorded_metric=Emax result="> 75%"
structure_smiles=O=c1ccc2ccc(OCCCCN3CCc4cc(C(F)(F)F)ccc4C3)nc2[nH]1 recorded_metric=Emax result="10 to 25%"

Fill in: Emax of Oc1cccc2ccc(OCCCCN3CCc4cc(C(F)(F)F)ccc4C3)nc12 is ___ < 10%

May I ask what Emax has been recorded for CS(=O)(=O)Nc1cccc(OCCCCN2CCc3ccccc3C2)n1 ? < 10%

Need Emax, item O=C1NCCc2ccc(OCCCCN3CCc4sccc4C3)nc2N1 < 10%

Which measured Emax value corresponds to N#Cc1cccc2c1CCN(CCCCOc1ccc3ccc(=O)[nH]c3n1)C2 ? 50 to 75%

---

tested.on: long isoform of human D2 receptor (Homo sapiens)
assay.method.text: Arrestin Antagonist Assay (DRD2L PathHunter CHO-K1 cells, vs EC80 dopamine)
pIC50: −log10 of the molar value.
recorded.metric: pIC50

Field: example entries. Status: answers known.
molecule="O=C1CCc2ccc(OCCCCN3CCc4cc(C(F)(F)F)ccc4C3)nc2N1 [Compound 74]" result="6.00 to 7.00"
molecule="O=C1NCCc2ccc(OCCCCN3CCc4nn(-c5ccccc5)cc4C3)nc2N1 [Compound 89]" result="7.00 to 8.00"
molecule="O=C1NCCc2ccc(OCCCCN3CCc4c(Cl)cccc4C3)nc2N1 [Compound 88]" result="6.00 to 7.00"
molecule="Cc1cccc(N2CCN(CCCCOc3ccc4cccc(O)c4n3)CC2)c1C [Compound 7]" result="6.00 to 7.00"
molecule="O=c1ccc2ccc(OCCCCN3CCc4cc(Cl)ccc4C3)nc2[nH]1 [Compound 59]" result="> 8.00"

Param readout = pIC50; param system = long isoform of human D2 receptor (Homo sapiens); param query = c1cc(OCCCCN2CCc3ccccc3C2)nc(-c2c[nH]cn2)c1 [Compound 51] ; response: value 6.00 to 7.00

Record Clc1cccc(N2CCN(CCCCOc3cccc(-c4cc[nH]n4)n3)CC2)c1Cl [Compound 46] : what is its pIC50 with long isoform of human D2 receptor (Homo sapiens)? > 8.00

Request - read-out pIC50 | tested on long isoform of human D2 receptor (Homo sapiens) | molecule Cc1ccc2c(c1)CN(CCCCOc1ccc3c(n1)NC(=O)CC3)CC2 [Compound 81] 7.00 to 8.00

What reported pIC50 corresponds to N#Cc1cccnc1N1CCN(CCCCOc2cccc(-c3cc[nH]n3)n2)CC1 [Compound 48] on long isoform of human D2 receptor (Homo sapiens)? 7.00 to 8.00

Query the reported pIC50 for long isoform of human D2 receptor (Homo sapiens); item: O=c1ccc2ccc(OCCCCN3CCc4cc(C(F)(F)F)ccc4C3)nc2[nH]1 [Compound 58] 7.00 to 8.00

---

Below, each of the molecules is paired with its reported Emax value.
tested.on: long isoform of human D2 receptor (Homo sapiens, UniProt P14416)
assay.method.text: Arrestin Antagonist Assay (DRD2L PathHunter CHO-K1 cells, vs EC80 dopamine)
measurement.context: CHO-K1, read-out: β-arrestin (antagonist mode) Imax

molecule="CCS(=O)(=O)Nc1cccc(OCCCCN2CCc3ccccc3C2)n1 [Compound 43]" result="> 75%"

Emax lookup needed for O=C1NCCc2ccc(OCCCCN3CCc4ccccc4C3)nc2N1 [Compound 83] , thanks. > 75%

Query: Emax; subject: O=C1CCc2ccc(OCCCCN3CCc4ccccc4C3)cc2N1 [Compound 91] > 75%

For the molecule shown here, O=C1CCc2ccc(OCCCCN3CCc4sccc4C3)nc2N1 [Compound 69] , give the reported Emax. > 75%

---

tested.on: long isoform of human D2 receptor (Homo sapiens, UniProt P14416)
assay.method.text: cAMP HTRF Agonist Assay (DRD2L PathHunter CHO-K1 cells, forskolin-stimulated)
measurement.context: CHO-K1, read-out: cAMP (agonist mode) Emax
The entries below are paired with their reported Emax.

Study these solved cases before continuing.
structure_smiles=c1ccc2c(N3CCN(CCCCOc4ccc5cn[nH]c5n4)CC3)cccc2c1 result="10 to 25%"
structure_smiles=Cc1ccc2c(c1)CN(CCCCOc1ccc3ccc(=O)[nH]c3n1)CC2 result="10 to 25%"

Return reported Emax; argument: CC(=O)Nc1cccc(OCCCCN2CCc3ccccc3C2)n1 < 10%

For the compound shown here, Clc1ccccc1N1CCN(CCCCOc2ccc3cn[nH]c3c2)CC1 , give the reported Emax. 50 to 75%

So what does the record say about Emax for O=C1CCc2ccc(OCCCCN3CCc4ccccc4C3)cc2N1 ? 25 to 50%

# Emax lookup, item O=c1ccc2ccc(OCCCCN3CCc4cc(C(F)(F)F)ccc4C3)nc2[nH]1 25 to 50%

Which Emax value is on record for Oc1cccc2ccc(OCCCCN3CCc4ccsc4C3)nc12 ? < 10%

---

Entries and their measured Emax follow.
tested.on: long isoform of human D2 receptor (Homo sapiens)
assay.method.text: Arrestin Antagonist Assay (DRD2L PathHunter CHO-K1 cells, vs EC80 dopamine)
measurement.context: CHO-K1, read-out: β-arrestin (antagonist mode) Imax

These solved cases illustrate the format of a correct answer.
structure_smiles=O=C1CCc2ccc(OCCCCN3CCc4nn(-c5ccc(F)cc5)cc4C3)cc2N1 result="> 75%"
structure_smiles=O=c1ccc2ccc(OCCCCN3CCc4c(cccc4C(F)(F)F)C3)nc2[nH]1 result="< 10%"
structure_smiles=O=C1NCCc2ccc(OCCCCN3CCc4cc(F)ccc4C3)nc2N1 result="> 75%"

Tell me reported Emax for COc1ccc(-n2cc3c(n2)CCN(CCCCOc2ccc4c(c2)NC(=O)CC4)C3)cc1 , tested with long isoform of human D2 receptor (Homo sapiens). > 75%

What value of Emax on long isoform of human D2 receptor (Homo sapiens) does O=C1NCCc2ccc(OCCCCN3CCc4c(Cl)cccc4C3)nc2N1 have? 25 to 50%

So what Emax did Oc1cccc2ccc(OCCCCN3CCN(c4ccccn4)CC3)nc12 get with long isoform of human D2 receptor (Homo sapiens)? < 10%

Give Emax (long isoform of human D2 receptor (Homo sapiens)) of the following compound: O=C1CCc2ccc(OCCCCN3CCc4sccc4C3)cc2N1 > 75%

Form: Entry = Oc1cccc2ccc(OCCCCN3CCc4cccc(C(F)(F)F)c4C3)nc12 | System = long isoform of human D2 receptor (Homo sapiens) | Emax = ____ > 75%

---

tested.on: long isoform of human D2 receptor (Homo sapiens, UniProt P14416)
assay.method.text: Arrestin Antagonist Assay (DRD2L PathHunter CHO-K1 cells, vs EC80 dopamine)
pIC50: −log10 of the molar value.
recorded.metric: pIC50

Examples with answers:
molecule="Oc1cccc2ccc(OCCCCN3CCc4cc(C(F)(F)F)ccc4C3)nc12 [Compound 17]" result="5.00 to 6.00"
molecule="O=C1CCc2ccc(OCCCCN3CCc4nccnc4C3)cc2N1 [Compound 25]" result="5.00 to 6.00"
molecule="Oc1cccc2ccc(OCCCCN3CCN(c4ccccn4)CC3)nc12 [Compound 8]" result="< 5.00"
molecule="Oc1cccc2ccc(OCCCCN3CCc4ccsc4C3)nc12 [Compound 19]" result="5.00 to 6.00"
molecule="O=C1CCc2ccc(OCCCCN3CCc4nn(-c5ccccc5)cc4C3)nc2N1 [Compound 82]" result="6.00 to 7.00"
molecule="O=c1ccc2ccc(OCCCCN3CCc4c(cccc4C(F)(F)F)C3)nc2[nH]1 [Compound 61]" result="< 5.00"
molecule="O=C1CCc2ccc(OCCCCN3CCc4sccc4C3)cc2N1 [Compound 27]" result="7.00 to 8.00"
molecule="O=C1CCc2ccc(OCCCCN3CCn4cncc4C3)cc2N1 [Compound 33]" result="5.00 to 6.00"

Continue with the molecule presented below.
Param item = O=c1ccc2ccc(OCCCCN3CCc4cccc(C(F)(F)F)c4C3)nc2[nH]1 [Compound 63] ; retrieve measured pIC50. 7.00 to 8.00

---

tested.on: long isoform of human D2 receptor (Homo sapiens, UniProt P14416)
assay.method.text: Arrestin Agonist Assay (DRD2L PathHunter CHO-K1 cells, β-arrestin recruitment)
measurement.context: CHO-K1, read-out: β-arrestin (agonist mode) Emax
recorded.metric: Emax

Record excerpt, results attached:
molecule="Cc1ccc2c(c1)CN(CCCCOc1ccc3c(n1)NC(=O)CC3)CC2 [Compound 81]" result="< 10%"
molecule="O=c1ccc2ccc(OCCCCN3CCc4nn(-c5ccccn5)cc4C3)nc2[nH]1 [Compound 67]" result="< 10%"
molecule="COc1ccc2c(c1)CCN(CCCCOc1ccc3cccc(O)c3n1)C2 [Compound 13]" result="10 to 25%"
molecule="O=c1ccc2ccc(OCCCCN3CCc4c(cccc4C(F)(F)F)C3)nc2[nH]1 [Compound 61]" result="> 75%"
molecule="COc1cccnc1N1CCN(CCCCOc2ccc3cn[nH]c3c2)CC1 [Compound 99]" result="10 to 25%"
molecule="Cc1ccccc1N1CCN(CCCCOc2ccc3cn[nH]c3c2)CC1 [Compound 96]" result="10 to 25%"

Given the entry O=C1CCc2ccc(OCCCCN3CCc4nn(-c5ccccc5F)cc4C3)cc2N1 [Compound 35] , what Emax was observed with long isoform of human D2 receptor (Homo sapiens, UniProt P14416)? < 10%

Recall the recorded Emax for CCOc1ccccc1N1CCN(CCCCOc2cccc(-c3cc[nH]n3)n2)CC1 [Compound 49] with long isoform of human D2 receptor (Homo sapiens, UniProt P14416) and state it. 10 to 25%

Fill in the recorded Emax for this molecule, with long isoform of human D2 receptor (Homo sapiens, UniProt P14416) as test system: O=c1ccc2ccc(OCCCCN3CCc4c(Cl)cccc4C3)nc2[nH]1 [Compound 60] > 75%

Item: O=C1CCc2ccc(OCCCCN3CCc4ccccc4C3)nc2N1 [Compound 68] Test system: long isoform of human D2 receptor (Homo sapiens, UniProt P14416) Read-out: Emax Value: ? < 10%

Form: Entry = O=C1CCc2ccc(OCCCCN3CCc4nn(-c5cccc(F)c5)cc4C3)cc2N1 [Compound 36] | System = long isoform of human D2 receptor (Homo sapiens, UniProt P14416) | Emax = ____ > 75%

Notebook: pull reported Emax for long isoform of human D2 receptor (Homo sapiens, UniProt P14416), entry O=C1NCCc2ccc(OCCCCN3CCc4cc(Cl)ccc4C3)nc2N1 [Compound 85] < 10%

Item: O=C1CCc2ccc(OCCCCN3CCc4nccnc4C3)cc2N1 [Compound 25] Test system: long isoform of human D2 receptor (Homo sapiens, UniProt P14416) Read-out: Emax Value: ? 25 to 50%

Form field - read-out: Emax; system: long isoform of human D2 receptor (Homo sapiens, UniProt P14416); submitted item: c1ccc(N2CCN(CCCCOc3ccc4cn[nH]c4c3)CC2)nc1 [Compound 94] > 75%

Hello, I am looking for reported Emax with long isoform of human D2 receptor (Homo sapiens, UniProt P14416) for COc1cccnc1N1CCN(CCCCOc2ccc3cccc(O)c3n2)CC1 [Compound 9] . Could you help? < 10%

Look up Emax with long isoform of human D2 receptor (Homo sapiens, UniProt P14416) for this molecule: O=C1CCc2ccc(OCCCCN3CCn4cncc4C3)cc2N1 [Compound 33] < 10%

Form field - read-out: Emax; system: long isoform of human D2 receptor (Homo sapiens, UniProt P14416); submitted item: N#Cc1cccc2c1CN(CCCCOc1ccc3c(n1)NC(=O)CC3)CC2 [Compound 80] < 10%

Identify the measured Emax of c1cc(OCCCCN2CCc3ccccc3C2)nc(-c2cc[nH]n2)c1 [Compound 44] for long isoform of human D2 receptor (Homo sapiens, UniProt P14416). 10 to 25%
